- assay system: α2B receptor (Homo sapiens, UniProt P18089)
- Construct: host or cells: LM(tk-) cells, line L-NGC-α2B
- Sequence (P18089 whole entry): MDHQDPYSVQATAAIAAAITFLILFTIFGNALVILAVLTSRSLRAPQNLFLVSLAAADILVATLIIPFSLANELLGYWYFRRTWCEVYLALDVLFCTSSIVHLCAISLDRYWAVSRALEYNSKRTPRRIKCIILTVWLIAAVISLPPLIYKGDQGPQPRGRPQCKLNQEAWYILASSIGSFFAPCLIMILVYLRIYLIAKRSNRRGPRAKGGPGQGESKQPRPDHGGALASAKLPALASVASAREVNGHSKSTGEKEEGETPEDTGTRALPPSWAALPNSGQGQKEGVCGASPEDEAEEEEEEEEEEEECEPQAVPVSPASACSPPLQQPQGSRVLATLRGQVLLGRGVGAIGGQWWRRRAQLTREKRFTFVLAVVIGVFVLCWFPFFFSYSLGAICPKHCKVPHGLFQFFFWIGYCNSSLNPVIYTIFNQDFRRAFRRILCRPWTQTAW
- protocol text: Competition binding, [3H]rauwolscine, human α2B receptor
- measurement conditions: pKi alpha-2 2b
// boundary case: Ki equal to 1000 nM maps to Not met; strictly smaller maps to Met

COC(=O)C1=C(C)NC(C)=C(C(=O)NCCCN2CCC(c3ccccc3)(c3ccccc3)CC2)C1c1ccc2c(c1)OCO2 (stereo not drawn) [Example 11] = Met

API: query returns whether the compound falls strictly under 1000 nM in Ki. Query: COC(=O)C1=C(C)NC(C)=C(C(=O)NCCCN2CCC(c3ccccc3)(c3ccccc3)CC2)C1c1ccc(C#N)cc1 (stereo not drawn) [Example 12]
Not met

API: query returns whether the compound falls strictly under 1000 nM in Ki. Query: COC(=O)C1=C(C)NC(C)=C(C(=O)NCCCN2CCC(c3ccccc3)(c3ccccc3)CC2)C1c1ccc(Br)cc1 (stereo not drawn) [Example 15]
Not met
